# Target System: ITK-SLP76 interaction (Homo sapiens, UniProt Q08881)
# Construct: endogenous in cells; host or cells: Jurkat T cells
# Sequence (Q08881 1-620): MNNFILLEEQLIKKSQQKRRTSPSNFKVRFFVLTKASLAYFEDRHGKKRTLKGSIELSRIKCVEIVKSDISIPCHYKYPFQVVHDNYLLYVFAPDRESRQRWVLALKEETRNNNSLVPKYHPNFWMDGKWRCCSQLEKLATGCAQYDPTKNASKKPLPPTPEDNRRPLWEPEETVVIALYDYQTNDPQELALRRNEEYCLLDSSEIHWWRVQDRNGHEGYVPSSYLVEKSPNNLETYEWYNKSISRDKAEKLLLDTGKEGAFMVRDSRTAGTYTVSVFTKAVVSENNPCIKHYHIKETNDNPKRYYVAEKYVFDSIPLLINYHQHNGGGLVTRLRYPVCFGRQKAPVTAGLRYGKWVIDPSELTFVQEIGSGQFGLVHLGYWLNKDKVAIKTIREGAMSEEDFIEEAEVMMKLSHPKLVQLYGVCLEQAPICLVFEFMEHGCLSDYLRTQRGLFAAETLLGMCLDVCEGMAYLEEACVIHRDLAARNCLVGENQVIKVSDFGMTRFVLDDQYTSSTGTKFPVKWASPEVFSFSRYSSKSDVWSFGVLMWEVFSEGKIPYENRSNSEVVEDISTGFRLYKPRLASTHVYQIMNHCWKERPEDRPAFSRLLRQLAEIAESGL
# Protocol Description: inhibition of inducible ITK-SLP76 association in stimulated Jurkat cells (co-immunoprecipitation)
# Type: cell-based
# Run Conditions: Jurkat cells; read-out: concentration for 50% inhibition in the ITK-SLP 76 association
No end group written: not given here.
Observation Type: IC50

Lookup: Reported IC50 for RRRRRRRRRQQPPVPPQRPMA [R9-QQP] : what is it?
Found: ~1000 nM
